Recorded Cmax values for a group of compounds are listed next.
- Assay text: Cmax in CD1 mouse at 10 mg/kg, po by LC-MS/MS analysis
- Format: ADME, organism-based
- Parameters: dose 10 mg/kg, route oral
- Condition notes: in vivo
Lab book: enter the figure in ng/mL, no units written.

Check out these entries, answers already filled in.
| Given smiles | Unit descriptor | Cmax |
| --- | --- | --- |
| C[C@@H]1CN2c3c(cc4c(N5CC6(CC6)OC5=O)noc4c3F)CC3(C(=O)NC(=O)NC3=O)[C@H]2[C@H](C)O1 | ng/mL | 2580 |
| C[C@@H]1CN2c3c(cc4c(N5C[C@H](C)SC5=O)noc4c3F)CC3(C(=O)NC(=O)NC3=O)[C@H]2[C@H](C)O1 | ng/mL | 2080 |

Now, please, on to the next compound.
Query string: Query (compound): "C[C@@H]1CN2c3c(cc4c(N5CCOC5=O)noc4c3F)CC3(C(=O)NC(=O)NC3=O)[C@H]2[C@H](C)O1" ; field requested: Cmax
Result string: 183

Reference for the values: ChEMBL document CHEMBL4316588
